# measurement_target: Lysosomal acid glucosylceramidase (Homo sapiens)
# assay_comment: Non-competitive inhibition of human beta-glucocerebrosidase by Lineweaver-Burk double reciprocal plot method
assay_metric: Ki (nM)
I only need the number, in nM, no unit after it.

Could you share which Ki value was measured for COc1ccc2c(c1)C(CC(=O)NCCCCN1C[C@H](O)[C@@H](O)[C@H](O)[C@H]1CO)CC2 (stereo partly specified) ?
1100

* * *

# measurement_target: Lysosomal acid glucosylceramidase (Homo sapiens, UniProt P04062)
# Sequence (P04062 whole entry): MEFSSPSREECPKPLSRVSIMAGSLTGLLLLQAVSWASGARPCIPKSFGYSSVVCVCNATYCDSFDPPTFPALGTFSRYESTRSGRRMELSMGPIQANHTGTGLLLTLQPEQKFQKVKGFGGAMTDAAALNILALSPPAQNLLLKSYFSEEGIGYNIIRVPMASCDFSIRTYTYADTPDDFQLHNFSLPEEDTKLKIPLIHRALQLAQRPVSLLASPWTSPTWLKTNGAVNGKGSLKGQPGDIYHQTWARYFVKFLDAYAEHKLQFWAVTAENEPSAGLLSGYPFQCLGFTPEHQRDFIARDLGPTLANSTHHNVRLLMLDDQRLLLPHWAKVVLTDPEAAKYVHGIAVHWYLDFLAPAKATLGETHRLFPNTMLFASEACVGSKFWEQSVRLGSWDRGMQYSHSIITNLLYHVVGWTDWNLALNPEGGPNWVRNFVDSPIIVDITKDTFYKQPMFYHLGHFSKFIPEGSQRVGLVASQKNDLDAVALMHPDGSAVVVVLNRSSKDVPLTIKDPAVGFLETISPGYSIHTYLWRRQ
# assay_comment: Competitive inhibition of human beta-glucocerebrosidase by Lineweaver-Burk double reciprocal plot method
assay_metric: pKi
Value format note: pKi is -log10 of concentration (mol/L); just state the number.

compound | pKi
O=C(Cc1cc(C(F)(F)F)cc(C(F)(F)F)c1)NCCCCN1C[C@H](O)[C@@H](O)[C@H](O)[C@H]1CO | 7.15
O=C(CC(c1ccccc1)(c1ccccc1)c1ccccc1)NCCCCN1C[C@H](O)[C@@H](O)[C@H](O)[C@H]1CO | 6.40
O=C(CC(c1ccccc1)(c1ccccc1)c1ccccc1)NCCCCN1[C@H](CO)[C@@H](O)[C@H](O)[C@H]1CO | 5.39
O=C(CC1c2ccccc2-c2ccccc21)NCCCCN1C[C@H](O)[C@@H](O)[C@H](O)[C@H]1CO | 6.40
O=C(COc1ccc(Cl)c(Cl)c1)NCCCCN1C[C@H](O)[C@@H](O)[C@H](O)[C@H]1CO | 5.49

Here is another compound to look at.
Give the reported pKi for O=C(NCCCCN1C[C@H](O)[C@@H](O)[C@H](O)[C@H]1CO)C1CCc2ccccc2C1 (stereo partly specified) (system: Lysosomal acid glucosylceramidase (Homo sapiens, UniProt P04062)).
6.00
